Molecular target: EGFR exon 20 SVD Ins D770_N771 (Ba/F3 cells) (Homo sapiens, UniProt P00533, INS770SVD)
Construct: expressed in transfected cells; host or cells: Ba/F3 (murine pro-B cells), retroviral transduction, puromycin selection, IL3-independent pool
Sequence (P00533 with tags, fused parts or gaps INS770SVD): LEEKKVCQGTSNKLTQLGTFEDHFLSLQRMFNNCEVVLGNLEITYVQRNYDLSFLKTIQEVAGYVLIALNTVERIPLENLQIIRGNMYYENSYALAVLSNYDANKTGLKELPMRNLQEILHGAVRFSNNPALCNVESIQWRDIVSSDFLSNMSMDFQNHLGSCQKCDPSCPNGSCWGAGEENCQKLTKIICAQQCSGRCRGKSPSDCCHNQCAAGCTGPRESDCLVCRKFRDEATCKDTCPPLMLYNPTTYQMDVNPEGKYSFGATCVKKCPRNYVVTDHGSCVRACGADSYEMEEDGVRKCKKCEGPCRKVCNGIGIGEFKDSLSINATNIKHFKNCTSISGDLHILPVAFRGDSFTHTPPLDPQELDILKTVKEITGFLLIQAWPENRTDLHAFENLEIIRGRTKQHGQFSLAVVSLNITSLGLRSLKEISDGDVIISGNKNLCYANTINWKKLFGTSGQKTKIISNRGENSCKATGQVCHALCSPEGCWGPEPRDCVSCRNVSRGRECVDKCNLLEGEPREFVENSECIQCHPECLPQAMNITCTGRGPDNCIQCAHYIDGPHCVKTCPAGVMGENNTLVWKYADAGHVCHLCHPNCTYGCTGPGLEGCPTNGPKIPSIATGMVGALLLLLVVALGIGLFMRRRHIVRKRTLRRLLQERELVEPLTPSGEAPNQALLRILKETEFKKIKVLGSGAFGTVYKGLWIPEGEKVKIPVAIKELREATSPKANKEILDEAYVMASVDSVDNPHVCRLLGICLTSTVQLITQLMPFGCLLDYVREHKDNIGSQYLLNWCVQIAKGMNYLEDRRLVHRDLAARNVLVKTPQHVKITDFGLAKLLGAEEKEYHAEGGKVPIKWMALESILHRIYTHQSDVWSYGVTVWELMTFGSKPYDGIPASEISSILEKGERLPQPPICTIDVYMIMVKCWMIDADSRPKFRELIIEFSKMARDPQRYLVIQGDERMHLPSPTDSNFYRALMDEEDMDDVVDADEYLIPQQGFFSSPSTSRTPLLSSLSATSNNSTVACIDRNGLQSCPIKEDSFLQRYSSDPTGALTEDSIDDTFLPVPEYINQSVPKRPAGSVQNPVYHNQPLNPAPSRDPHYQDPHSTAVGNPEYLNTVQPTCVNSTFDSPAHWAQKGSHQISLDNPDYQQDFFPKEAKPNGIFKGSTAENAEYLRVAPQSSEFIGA
Experiment: Inhibitor activity on EGFR-dependent cell growth (CellTiter-Glo, 72 h), Ba/F3 EGFR exon 20 SVD Ins
Assay type: cell-based
Conditions: read-out: BaF3 SVD IC50
# IC50 listing for each entry below
REPORTED METRIC: IC50

- COc1c(F)cccc1Nc1c(-c2nnc3cc(C)ccn23)[nH]c2c1C(=O)NCC2 [compound 246]: > 1 µM
- COC(=O)N1CCC2(CNC(=O)c3c2[nH]c(-c2ccncc2F)c3Nc2cccc(Cl)c2OC)C1 (single isomer, unassigned) [Compound 497]: 0.1 to 1 µM
- COc1c(Cl)cccc1Nc1c(-c2ccncc2F)[nH]c2c1C(=O)NCC21CCN(C(=O)/C=C/CN(C)C)CC1 [Compound 522]: 0.1 to 1 µM
- COc1c(Cl)cccc1Nc1c(-c2ccncc2F)[nH]c2c1C(=O)NC[C@@H]2C[C@@H]1CN(C)CCO1 [compound 790]: < 0.1 µM
- COc1c(Cl)cccc1Nc1c(-c2ccncc2F)[nH]c2c1C(=O)NC[C@@H]2CC(F)F [Compound 819]: 0.1 to 1 µM
- COc1c(Cl)cccc1Nc1c(-c2ccnc3ccc(OC[C@@H]4CCO4)nc23)[nH]c2c1C(=O)NCC2 [compound 735]: < 0.1 µM
- CCc1c(F)cccc1Nc1c(-c2ccnc(N)n2)[nH]c2c1C(=O)NCC2 [compound 195]: 0.1 to 1 µM
- COc1c(Cl)cccc1Nc1c(-c2ccncc2F)[nH]c2c1C(=O)NCC21CCOC1 (single isomer, unassigned) [Compound 782]: 0.1 to 1 µM
- COc1c(F)cccc1Nc1c(-c2ccnc3cccnc23)[nH]c2c1C(=O)NCC2 [compound 442]: < 0.1 µM
- C=CC(=O)N1CCC2(CC1)CNC(=O)c1c2[nH]c(-c2ccncc2F)c1Nc1cc(F)cc(F)c1OC [compound 610]: < 0.1 µM
- COc1c(F)cccc1Nc1c(-c2ccnc3ccc(OC4CC4)nc23)[nH]c2c1C(=O)NCC2 [Compound 696, trifluoroacetic acid]: < 0.1 µM
- COc1c(Cl)cccc1Nc1c(-c2ccnc(Nc3ccn(CC(F)F)n3)n2)[nH]c2c1C(=O)NCC2 [compound 515]: < 0.1 µM
- COc1c(Cl)cccc1Nc1c(-c2ccnc(N)n2)[nH]c2c1C(=O)NC[C@H]2C[C@@H]1COCCO1 [Compound 567]: < 0.1 µM
- COc1c(Cl)cccc1Nc1c(-c2ccnc(NCC3CC(F)(F)C3)c2)[nH]c2c1C(=O)NCC2 [compound 711]: > 1 µM
- COc1c(Cl)cccc1Nc1c(-c2ccnc3cnc(C4CC4)nc23)[nH]c2c1C(=O)NCC2 [Compound 776]: < 0.1 µM
- COc1c(Cl)cccc1Nc1c(-c2nc(N)ncc2C#N)[nH]c2c1C(=O)NCC2 [Compound 693]: > 1 µM
- COc1c(Cl)cccc1Nc1c(-c2ccnc(NC(C)=O)n2)[nH]c2c1C(=O)NCC2 [compound 220]: 0.1 to 1 µM
- COc1c(Cl)cccc1Nc1c(-c2ccncc2F)[nH]c2c1C(=O)NC[C@H]2CC(=O)N(C)C [Compound 487]: 0.1 to 1 µM
